The measured values listed here are drawn from ChEMBL document CHEMBL3596156.

System: HeLa
experimental-protocol: Cytotoxicity against human HeLa cells assessed as inhibition of cell proliferation after 72 hrs by MTT assay
Format: functional, cell-based
The label is yes (1) for IC50 below 40 nM and no (0) for IC50 equal to or exceeding 40 nM.

Request: Is it true that IC50 reported for COc1cc2c(O[C@@H]3OC[C@@H](OC)[C@H](OC)[C@H]3O)c3c(c(-c4ccc5c(c4)OCO5)c2cc1OC)C(=O)OC3 is less than 40 nM?
Result: yes (1)

Request: I wonder whether COc1cc2c(O[C@@H]3OC[C@@H](OC)[C@H](OC)[C@H]3OCCCCCCN3CCN(CCO)CC3)c3c(c(-c4ccc5c(c4)OCO5)c2cc1OC)C(=O)OC3 has IC50 below 40 nM. Can you tell?
Result: yes (1)

Request: Report whether reported IC50 is lower than 40 nM (strictly) for COc1cc2c(O[C@@H]3OC[C@@H](OC)[C@H](OC)[C@H]3OCCCCCCCCN3CCN(CCO)CC3)c3c(c(-c4ccc5c(c4)OCO5)c2cc1OC)C(=O)OC3
Result: no (0)

Request: Bench note: check whether COc1cc2c(O[C@@H]3OC[C@@H](OC)[C@H](OC)[C@H]3OCCCCCCN3CCN(C)CC3)c3c(c(-c4ccc5c(c4)OCO5)c2cc1OC)C(=O)OC3 shows IC50 below 40 nM
Result: yes (1)

Request: For COc1cc2c(O[C@@H]3OC[C@@H](OC)[C@H](OC)[C@H]3OCCCCCCN3CCCCC3)c3c(c(-c4ccc5c(c4)OCO5)c2cc1OC)C(=O)OC3 , is the recorded IC50 below the cut-off of 40 nM?
Result: yes (1)

Request: Determine whether this molecule shows IC50 lower than 40 nM (ties excluded): COc1cc2c(O[C@@H]3OC[C@@H](OC)[C@H](OC)[C@H]3OCCCCCCN3CCOCC3)c3c(c(-c4ccc5c(c4)OCO5)c2cc1OC)C(=O)OC3
Result: yes (1)

Request: # TODO verify IC50 < 40 nM strictly for this molecule: COc1cc2c(O[C@@H]3OC[C@@H](OC)[C@H](OC)[C@H]3OCCCCCCCN3CCC(O)CC3)c3c(c(-c4ccc5c(c4)OCO5)c2cc1OC)C(=O)OC3
Result: no (0)

Request: IC50 strictly < 40 nM for this molecule? COc1cc2c(O[C@@H]3OC[C@@H](OC)[C@H](OC)[C@H]3OCCCCCCCCN3CCOCC3)c3c(c(-c4ccc5c(c4)OCO5)c2cc1OC)C(=O)OC3
Result: no (0)

Request: Criterion: IC50 strictly below 40 nM. Is it met by COc1cc2c(O[C@@H]3OC[C@@H](OC)[C@H](OC)[C@H]3OCCCCCCCN3CCN(C)CC3)c3c(c(-c4ccc5c(c4)OCO5)c2cc1OC)C(=O)OC3 ?
Result: no (0)

Request: Given the entry COc1cc2c(O[C@@H]3OC[C@@H](OC)[C@H](OC)[C@H]3OCCCCCCCN3CCOCC3)c3c(c(-c4ccc5c(c4)OCO5)c2cc1OC)C(=O)OC3 , would its reported IC50 be below 40 nM?
Result: yes (1)

Request: Report whether reported IC50 is lower than 40 nM (strictly) for COc1cc2c(O[C@@H]3OC[C@@H](OC)[C@H](OC)[C@H]3OCCCCCCN3CCC(O)CC3)c3c(c(-c4ccc5c(c4)OCO5)c2cc1OC)C(=O)OC3
Result: yes (1)

Request: Is IC50 strictly under 40 nM for the entry COc1cc2c(O[C@@H]3OC[C@@H](OC)[C@H](OC)[C@H]3OCCCCCCCCN3CCCCC3)c3c(c(-c4ccc5c(c4)OCO5)c2cc1OC)C(=O)OC3 ?
Result: no (0)
